# METHOD: Cytotoxicity against HEK-Blue hTLR4 cells incubated for 24 hrs by CCK8 assay
# Type: toxicity, cell-based
# APPLIED CONDITIONS: human
Listed here are molecules together with their documented IC50 at 24 h.

The following molecules have reported results that may help.
COMPOUND: FC(F)c1cc(-c2ccc(Cl)cc2)nc2cc(C(=S)N3C[C@H]4CCCC[C@H]4C3)nn12
RESULT: > 50 µM
//
COMPOUND: CC(C)(C)OC(=O)NC1CCN(C(=O)c2cnn3c(C(F)F)cc(-c4ccc(Cl)cc4)nc23)CC1
RESULT: 45.9 µM
//
COMPOUND: O=C(Oc1ccnc2c(Br)cccc12)c1cnn2c(C(F)F)cc(-c3ccc(Cl)cc3)nc12
RESULT: > 50 µM
//
COMPOUND: O=C(c1cnn2c(C(F)F)cc(-c3ccc(Cl)cn3)nc12)N1C[C@H]2CCCC[C@H]2C1
RESULT: > 50 µM
//
COMPOUND: CCOC(=O)C1=CCCC[C@H]1S(=O)(=O)Nc1ccc(F)cc1Cl
RESULT: > 50 µM

Request the reported IC50 at 24 h associated with "O=C(c1cnn2c(C(F)(F)F)cc(-c3ccc(Cl)cc3)nc12)N1CCC2(CC1)OCCO2"
> 50 µM
